molecular target: human alpha 7-wt nAChR (Homo sapiens, UniProt P36544); construct: expressed in transfected cells; experiment: Ca2+ flux imaging (FDSS) (Protocol B); assay type: cell-based; settings: potentiation of 100 μM choline; compounds 0.01 μM to 30 μM; read-out: a7-PAM-G_[33]_pEC50 pEC50 (converted)
Sequence (P36544 23-502): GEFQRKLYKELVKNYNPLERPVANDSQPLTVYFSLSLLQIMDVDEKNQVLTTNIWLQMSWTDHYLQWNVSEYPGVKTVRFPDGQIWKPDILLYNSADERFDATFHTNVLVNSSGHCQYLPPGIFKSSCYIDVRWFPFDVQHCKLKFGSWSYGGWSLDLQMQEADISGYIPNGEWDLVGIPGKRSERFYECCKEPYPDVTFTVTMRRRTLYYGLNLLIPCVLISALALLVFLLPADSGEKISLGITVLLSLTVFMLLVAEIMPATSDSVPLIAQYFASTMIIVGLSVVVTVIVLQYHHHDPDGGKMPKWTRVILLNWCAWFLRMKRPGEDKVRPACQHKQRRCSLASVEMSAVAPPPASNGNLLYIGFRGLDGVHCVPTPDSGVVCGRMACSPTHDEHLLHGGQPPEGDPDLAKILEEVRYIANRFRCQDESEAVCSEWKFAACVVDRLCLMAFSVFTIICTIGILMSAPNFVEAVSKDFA
endpoint name: EC50 (nM)
Value expressed in nM; do not type the unit.

compound: Cc1cc(-c2sc(N3CCOC(C)(C)C3)nc2CNC(=O)c2conc2C)cc(C)n1 [Compound 182]
EC50 (nM): 1450
//
compound: Cc1cc(-c2sc(N3C[C@@H](C)O[C@@H](C)C3)nc2CNC(=O)c2cnccn2)cc(C)n1 [Compound 138]
EC50 (nM): 4680
//
compound: Cc1cc(-c2sc(N3CCOC(C)C3)nc2CNC(=O)CC2CC2)cc(C)n1 (single isomer, unassigned) [Compound 78]
EC50 (nM): 1170
//
compound: Cc1cc(-c2sc(N3CC(C)OC(C)C3)nc2CNC(=O)c2conc2C)cc(C)n1 (racemic) [Compound 68]
EC50 (nM): 912
//
compound: Cc1cc(-c2sc(N3C[C@@H](C)O[C@@H](C)C3)nc2CNC(=O)c2ccoc2)cc(C)n1 [Compound 141]
EC50 (nM): 692

Prompt line: For Cc1cc(-c2sc(N3C[C@@H](C)O[C@@H](C)C3)nc2CNC(=O)c2ncsc2C)cc(C)n1 [Compound 178] , write its EC50.
Response line: 501

Prompt line: For Cc1cc(-c2sc(N3CCOC[C@@H]3C)nc2CNC(=O)c2conc2C)cc(C)n1 [Compound 185] , write its EC50.
Response line: 4790

Prompt line: For Cc1cc(-c2sc(N3C[C@@H](C)O[C@@H](C)C3)nc2CNC(=O)c2cc(C)on2)ccn1 [Compound 87] , write its EC50.
Response line: 813

Prompt line: For Cc1cc(-c2sc(N3C[C@@H](C)O[C@@H](C)C3)nc2CNC(=O)c2nocc2C)cc(C)n1 [Compound 174] , write its EC50.
Response line: 537

Prompt line: For Cc1cc(-c2sc(N3CCOC(C(F)(F)F)C3)nc2CNC(=O)c2conc2C)cc(C)n1 (stereo not drawn) [Compound 196] , write its EC50.
Response line: 56.2

Prompt line: For Cc1ccc(C(=O)NCc2nc(N3C[C@@H](C)O[C@@H](C)C3)sc2-c2cc(C)nc(C)c2)c(C)c1 [Compound 21] , write its EC50.
Response line: 72.4

Prompt line: For Cc1cc(-c2sc(N3C[C@@H](C)O[C@@H](C)C3)nc2CNC(=O)c2nc(C)oc2C(F)(F)F)cc(C)n1 [Compound 20] , write its EC50.
Response line: 1740

Prompt line: For C[C@@H]1CN(c2nc(CNC(=O)CC3CC3)c(-c3ccnc(C(F)(F)F)c3)s2)C[C@H](C)O1 [Compound 200] , write its EC50.
Response line: 162

Prompt line: For Cc1cc(-c2sc(N3CC(C)OC(C)C3)nc2CNC(=O)c2ccc(Cl)cc2)cc(C)n1 (racemic) [Compound 58] , write its EC50.
Response line: 295

Prompt line: For Cc1cc(-c2sc(N3C[C@@H](C)O[C@@H](C)C3)nc2CNC(=O)C2CC(=O)OC2(C)C)cc(C)n1 (stereo partly drawn) [Compound 154] , write its EC50.
Response line: 871
